assay: Evaluated for the mustard reactivity by determining rate constant for hydrolysis of mustard in aqueous acetone (K H); assay type: ADME; conditions: buffer
Label t when K H is at or above 6000 s⁻¹; anything below gets f.

These solved cases illustrate the format of a correct answer.
> print(dat)
                    structure.smiles.string  answer.label
1  ClCCN(CCCl)c1ccc(CCCCCCNc2c3ccccc3nc3ccccc23)cc1             t
2  O=C(NCCCCNc1c2ccccc2nc2ccccc12)c1ccc(N(CCCl)CCCl)cc1             t

Input: Hi team, for `O=S(=O)(CCCCCNc1c2ccccc2nc2ccccc12)c1ccc(N(CCCl)CCCl)cc1` , is the recorded K H at or above 6000 s⁻¹?
Output: f

Input: Hi team, for `O=C(CCCCCNc1c2ccccc2nc2ccccc12)c1ccc(N(CCCl)CCCl)cc1` , is the recorded K H at or above 6000 s⁻¹?
Output: f

Input: Hi team, for `O=C(CCCCNc1c2ccccc2nc2ccccc12)Nc1ccc(N(CCCl)CCCl)cc1` , is the recorded K H at or above 6000 s⁻¹?
Output: f

Input: Hi team, for `ClCCN(CCCl)c1ccc(OCCCCCNc2c3ccccc3nc3ccccc23)cc1` , is the recorded K H at or above 6000 s⁻¹?
Output: t
